# TARGET DESC: T1, PSMA Fab (006 PSMA Fab)
# T1 construct: also called Anti-PSMA Fab
# ASSAY OVERVIEW: clonal phage ELISA on biotinylated PSMA Fab captured on neutravidin plates, anti-M13-HRP detection;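 further: crude clonal phage supernatants added to wells preincubated with PSMA antigen or with blocking buffer only (no wash between), briefly incubated, then washed before detecting bound phage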
Where no end group is shown, it is not given here.
PROPERTY: Phage binding ELISA signal, Anti-PSMA Fab

Sample records with Phage binding ELISA signal, Anti-PSMA Fab:
QUERY: // fetch Phage binding ELISA signal, Anti-PSMA Fab given entry ATVVCSPPWMCTGF [Phage-3817]
RESULT: 1.27

QUERY: Give the reported value of Phage binding ELISA signal, Anti-PSMA Fab for this record: PQIWCVPTWMCAAS (cysteine pairing not given here; also: displayed on phage as fusion to pIII, junction not given here) [Phage-3821]
RESULT: 1.26

Now for another entry.
QUERY: Given the binder VQHWCVPAWMCYGL [Phage-3826] , write its reported Phage binding ELISA signal, Anti-PSMA Fab.
RESULT: 1.24
